- Tested target: MERTK (UniProt Q12866)
- Sequence (Q12866 whole entry, looked up): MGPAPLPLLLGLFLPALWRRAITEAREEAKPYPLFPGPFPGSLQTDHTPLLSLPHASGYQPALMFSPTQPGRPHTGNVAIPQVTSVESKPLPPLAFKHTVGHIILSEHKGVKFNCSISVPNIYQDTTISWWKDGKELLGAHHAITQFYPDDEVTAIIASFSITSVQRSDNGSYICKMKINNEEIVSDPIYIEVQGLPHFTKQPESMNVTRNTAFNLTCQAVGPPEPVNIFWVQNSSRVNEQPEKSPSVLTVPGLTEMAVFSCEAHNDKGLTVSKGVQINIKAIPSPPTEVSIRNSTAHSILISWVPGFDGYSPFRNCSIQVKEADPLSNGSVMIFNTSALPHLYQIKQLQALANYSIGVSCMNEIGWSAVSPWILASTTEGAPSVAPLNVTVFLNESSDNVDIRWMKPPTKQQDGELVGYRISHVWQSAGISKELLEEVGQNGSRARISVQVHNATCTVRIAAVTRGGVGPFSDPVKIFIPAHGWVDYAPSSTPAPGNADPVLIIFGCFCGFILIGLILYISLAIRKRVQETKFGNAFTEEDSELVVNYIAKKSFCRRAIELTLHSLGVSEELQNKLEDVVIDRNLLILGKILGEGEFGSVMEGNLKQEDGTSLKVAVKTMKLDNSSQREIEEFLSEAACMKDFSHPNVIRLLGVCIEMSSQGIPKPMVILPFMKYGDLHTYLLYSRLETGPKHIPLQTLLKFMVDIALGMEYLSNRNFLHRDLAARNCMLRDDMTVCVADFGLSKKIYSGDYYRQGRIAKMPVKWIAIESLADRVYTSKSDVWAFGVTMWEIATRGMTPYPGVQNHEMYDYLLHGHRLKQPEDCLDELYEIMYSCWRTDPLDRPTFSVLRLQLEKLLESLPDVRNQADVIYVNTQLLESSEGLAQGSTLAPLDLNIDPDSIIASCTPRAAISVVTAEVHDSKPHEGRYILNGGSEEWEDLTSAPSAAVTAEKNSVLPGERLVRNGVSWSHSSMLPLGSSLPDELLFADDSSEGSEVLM
- Protocol details: phosphorylation enrichment, bacterial display (enrichment ratio); higher = better substrate or ligand; peptides without Tyr show the background
Label scheme for phosphorylation enrichment: lower than 0.5 is 0, 0.5 and above is 1.

Assess whether reported phosphorylation enrichment for HFVDEYDPTIE [KRAS_Y32] sits at 0.5 or higher.
1

# repeat for VDTRAYLTSAT [MT-CO1_Y304_F305L]
0

What about this sequence? AHADEYGAEAL [HBA1_Y25_G23D]
1

# repeat for LPEENYQVLRF [ARHGAP1_Y365]
1

What about this sequence? LEIETCRRLLD [KRT12_Y429_Y429C]
0

Next:
phosphorylation enrichment >= 0.5 for KSSDVYVSFDF [SORL1_Y136_YF] ?
1

Try PGIRMYQVQFN [LRFN1_Y454_YF] next.
0

====

- Tested on: c-Src
- Protocol details: phosphorylation enrichment, bacterial display (enrichment ratio); higher = better substrate or ligand; peptides without Tyr show the background
Recorded metric: phosphorylation enrichment
Answer with a number only.

Would you please look over these solved cases?
Return reported phosphorylation enrichment; argument: PKEEPYQMQEK [SLC5A3_Y565]
0.923

Moving on to the next sequence: KALKQYRAGPS [DDX27_Y763]
0.407

Others:
Item under review: PGIRMYQVQFN [LRFN1_Y454_YF] . Reported phosphorylation enrichment?
0.583

====

- Tested target: c-Src SH2;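 further: peptide library displayed on the E. coli surface as eCPX fusions, selected cells deep-sequenced, score is each peptide's frequency after selection divided by its frequency in the input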
- Protocol details: SH2 binding enrichment of the phosphorylated peptide, bacterial display (enrichment ratio); higher = better substrate or ligand; peptides without Tyr show the background
Recorded metric: SH2 binding enrichment
// no unit, no text: just the number

Example results:
I am curious: what SH2 binding enrichment value has been reported for FHKALYTVRTF [PDE6C_Y266_S270T_YF] ?
0.536

Also KLIMEYLPYGS [JAK2_Y931] , if possible.
0.762

Another sequence: QRAADYFSQQM [GBP6_Y333_YF]
0.338

Next:
What SH2 binding enrichment value was documented for this sequence, REIIAYQPYGK [PRKCG_Y529_P524R] ?
0.808

====

- Tested target: Jak2 (UniProt O60674)
- Sequence (O60674 whole entry, looked up): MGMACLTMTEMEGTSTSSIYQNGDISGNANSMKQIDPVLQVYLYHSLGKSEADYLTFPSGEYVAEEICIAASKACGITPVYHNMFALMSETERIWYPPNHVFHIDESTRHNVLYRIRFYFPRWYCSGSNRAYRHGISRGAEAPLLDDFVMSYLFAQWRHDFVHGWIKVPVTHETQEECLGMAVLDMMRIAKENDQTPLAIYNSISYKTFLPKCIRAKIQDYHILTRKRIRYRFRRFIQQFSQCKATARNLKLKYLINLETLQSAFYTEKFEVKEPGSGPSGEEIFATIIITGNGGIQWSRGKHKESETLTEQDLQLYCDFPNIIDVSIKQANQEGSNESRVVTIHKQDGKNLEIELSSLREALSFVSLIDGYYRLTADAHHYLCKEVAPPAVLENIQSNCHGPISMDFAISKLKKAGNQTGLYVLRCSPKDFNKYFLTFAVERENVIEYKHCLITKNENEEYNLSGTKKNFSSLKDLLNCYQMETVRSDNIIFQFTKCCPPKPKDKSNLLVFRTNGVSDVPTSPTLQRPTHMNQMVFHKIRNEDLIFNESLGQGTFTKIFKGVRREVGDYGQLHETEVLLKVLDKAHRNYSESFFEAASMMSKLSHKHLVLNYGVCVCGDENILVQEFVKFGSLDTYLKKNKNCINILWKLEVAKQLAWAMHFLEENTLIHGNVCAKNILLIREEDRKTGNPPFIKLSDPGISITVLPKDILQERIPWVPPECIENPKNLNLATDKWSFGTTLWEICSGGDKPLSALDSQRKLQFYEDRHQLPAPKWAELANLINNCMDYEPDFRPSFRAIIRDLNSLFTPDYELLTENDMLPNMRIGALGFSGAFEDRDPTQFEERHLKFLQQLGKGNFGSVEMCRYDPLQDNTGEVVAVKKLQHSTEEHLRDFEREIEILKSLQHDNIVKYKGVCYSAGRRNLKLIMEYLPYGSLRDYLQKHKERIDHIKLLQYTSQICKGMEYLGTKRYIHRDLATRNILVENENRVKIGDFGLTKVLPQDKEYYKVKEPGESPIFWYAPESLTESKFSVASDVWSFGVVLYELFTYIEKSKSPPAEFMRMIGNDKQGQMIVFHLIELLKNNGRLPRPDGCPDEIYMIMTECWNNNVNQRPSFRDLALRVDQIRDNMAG
- Protocol details: phosphorylation enrichment, bacterial display (enrichment ratio); higher = better substrate or ligand; peptides without Tyr show the background
Grouping key: phosphorylation enrichment. Bins: A (below 0.7), B (0.7 to below 1), C (1 or more)

Use these answered entries as a reference point.
Into which bin does this sequence go? EGLRRYLENGK [HLA-A_Y195_W191G]
A

Repeat for the following sequence: KLIMECLPFGS [JAK2_Y931_Y931C_YF]
C

Also DTFDPYLDIAL [USP36_Y268_V271I_YF] ?
C

Try this sequence too: FRVAGYKTQGG [TIA1_Y383_E384K_YF]
A

Please answer likewise for DDFDLYGGEKF [PTPN11_Y66_Y62D_YF]
C

Try VHNLDYFKETT [FGFR3_Y647_K650E_YF] next.
B

Try VGGRIYIDDGL [PKLR_Y218] next.
B

Then what about the sequence DKITQYVEEVK [STX2_Y49] ?
B

---
GET /class?item= GARGRYIMGGP [TNK1_Y277_V278I]
A

Please do the same for TVLWWYTGTRP [UGT1A1_Y337_R336W] as well.
C

Now consider VAHAVYQAVLS [SMG1_Y549] .
A

The measured values listed here are drawn from the supplement of paper PMC10065799.
